B1: SLC19A2 (parent)
chain: IYPVWTYSYLVLLFPVFLATDYLR

Variants of: B1
method: protein stability index of a GFP-peptide fusion (GPS, HEK-293T) (PSI 1-6); higher = more stable;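 also: lentivirally expressed fusions sorted by FACS into six bins by GFP to DsRed ratio, PSI derived from sequencing read proportions per bin multiplied by bin number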
test_settings: c terminus: a fixed tail appended
Recorded protein stability index, one value per entry.

[
  {
    "query_sequence": "IYPVWTYSYMVLLFPVFLATDYLR [L10M]",
    "protein stability index": 2.85
  },
  {
    "query_sequence": "IYPVWTYSYLVLLFPVFLWTDYLR [A19W]",
    "protein stability index": 3.92
  },
  {
    "query_sequence": "MYPVWTYSYLVLLFPVFLATDYLR [I1M]",
    "protein stability index": 2.3
  },
  {
    "query_sequence": "IYPVWTISYLVLLFPVFLATDYLR [Y7I]",
    "protein stability index": 2.4
  },
  {
    "query_sequence": "IYPVWTYSQLVLLFPVFLATDYLR [Y9Q]",
    "protein stability index": 2.02
  },
  {
    "query_sequence": "IYGVWTYSYLVLLFPVFLATDYLR [P3G]",
    "protein stability index": 3.79
  },
  {
    "query_sequence": "RYPVWTYSYLVLLFPVFLATDYLR [I1R]",
    "protein stability index": 1.87
  },
  {
    "query_sequence": "IYPVWTYSYLVLLFPVFLAYDYLR [T20Y]",
    "protein stability index": 1.95
  },
  {
    "query_sequence": "IYPVWTYKYLVLLFPVFLATDYLR [S8K]",
    "protein stability index": 3.14
  },
  {
    "query_sequence": "VYPVWTYSYLVLLFPVFLATDYLR [I1V]",
    "protein stability index": 4.95
  },
  {
    "query_sequence": "IYPVWTYSMLVLLFPVFLATDYLR [Y9M]",
    "protein stability index": 2.97
  },
  {
    "query_sequence": "IYPVWTYSYLVLLLPVFLATDYLR [F14L]",
    "protein stability index": 3.35
  },
  {
    "query_sequence": "IYPVHTYSYLVLLFPVFLATDYLR [W5H]",
    "protein stability index": 3.15
  },
  {
    "query_sequence": "IYWVWTYSYLVLLFPVFLATDYLR [P3W]",
    "protein stability index": 3.05
  },
  {
    "query_sequence": "IYPEWTYSYLVLLFPVFLATDYLR [V4E]",
    "protein stability index": 3.43
  },
  {
    "query_sequence": "IYPVWTYSYLVLLFHVFLATDYLR [P15H]",
    "protein stability index": 2.75
  },
  {
    "query_sequence": "IYPVWTYSYLVLLFPVFLITDYLR [A19I]",
    "protein stability index": 2.47
  },
  {
    "query_sequence": "IYPVWTYSYLVLWFPVFLATDYLR [L13W]",
    "protein stability index": 3.58
  },
  {
    "query_sequence": "IYPVWTYSYLVLLYPVFLATDYLR [F14Y]",
    "protein stability index": 2.88
  },
  {
    "query_sequence": "IYPVWTYSYLVLLFPVFLATDYVR [L23V]",
    "protein stability index": 2.32
  },
  {
    "query_sequence": "IYPVWNYSYLVLLFPVFLATDYLR [T6N]",
    "protein stability index": 3.48
  },
  {
    "query_sequence": "IYPVWTYSYLVLNFPVFLATDYLR [L13N]",
    "protein stability index": 2.64
  },
  {
    "query_sequence": "IYPGWTYSYLVLLFPVFLATDYLR [V4G]",
    "protein stability index": 3.35
  },
  {
    "query_sequence": "IYPVCTYSYLVLLFPVFLATDYLR [W5C]",
    "protein stability index": 3.27
  },
  {
    "query_sequence": "IYPVWTYSYRVLLFPVFLATDYLR [L10R]",
    "protein stability index": 2.9
  },
  {
    "query_sequence": "IYPVWTYSYLVLLFPVFCATDYLR [L18C]",
    "protein stability index": 3.04
  },
  {
    "query_sequence": "IYPVWTYSYLVLLFPVFLATDYER [L23E]",
    "protein stability index": 2.68
  },
  {
    "query_sequence": "IYPVWTYSYLVLLFPVFLATDYIR [L23I]",
    "protein stability index": 2.61
  },
  {
    "query_sequence": "IYPVWTYSFLVLLFPVFLATDYLR [Y9F]",
    "protein stability index": 1.75
  },
  {
    "query_sequence": "IYPVWTYSYLVLLFPVFLATDYSR [L23S]",
    "protein stability index": 2.62
  },
  {
    "query_sequence": "ISPVWTYSYLVLLFPVFLATDYLR [Y2S]",
    "protein stability index": 2.56
  },
  {
    "query_sequence": "IYPVWTYAYLVLLFPVFLATDYLR [S8A]",
    "protein stability index": 4.5
  },
  {
    "query_sequence": "IYPVWTYSYLVLLFPCFLATDYLR [V16C]",
    "protein stability index": 2.79
  },
  {
    "query_sequence": "IYPVWTYSHLVLLFPVFLATDYLR [Y9H]",
    "protein stability index": 2.97
  },
  {
    "query_sequence": "IYPVWTYSYLVLLFPVDLATDYLR [F17D]",
    "protein stability index": 2.99
  },
  {
    "query_sequence": "IYPDWTYSYLVLLFPVFLATDYLR [V4D]",
    "protein stability index": 2.85
  },
  {
    "query_sequence": "IYPVWTYSYLVLLFPVFLATDYLY [R24Y]",
    "protein stability index": 2.75
  },
  {
    "query_sequence": "IYPVWTYSILVLLFPVFLATDYLR [Y9I]",
    "protein stability index": 3.67
  },
  {
    "query_sequence": "IYPVWTYSYLVLLFPVHLATDYLR [F17H]",
    "protein stability index": 3.74
  },
  {
    "query_sequence": "IYPVWTYSYLVLLFPVFLVTDYLR [A19V]",
    "protein stability index": 3.34
  },
  {
    "query_sequence": "IYPVATYSYLVLLFPVFLATDYLR [W5A]",
    "protein stability index": 3.28
  },
  {
    "query_sequence": "IYPVWTYSYLVLLFPRFLATDYLR [V16R]",
    "protein stability index": 3.91
  },
  {
    "query_sequence": "IYPVWSYSYLVLLFPVFLATDYLR [T6S]",
    "protein stability index": 2.86
  },
  {
    "query_sequence": "IIPVWTYSYLVLLFPVFLATDYLR [Y2I]",
    "protein stability index": 4.61
  },
  {
    "query_sequence": "IYPVWTYSYLVPLFPVFLATDYLR [L12P]",
    "protein stability index": 3.92
  },
  {
    "query_sequence": "IYPVWTYSRLVLLFPVFLATDYLR [Y9R]",
    "protein stability index": 4.42
  },
  {
    "query_sequence": "IYPVWTYSYLVLLFGVFLATDYLR [P15G]",
    "protein stability index": 1.93
  },
  {
    "query_sequence": "IYPVWTYSYLVLYFPVFLATDYLR [L13Y]",
    "protein stability index": 2.87
  },
  {
    "query_sequence": "IYPVWTYSYLVLLFPYFLATDYLR [V16Y]",
    "protein stability index": 2.34
  },
  {
    "query_sequence": "IYPVNTYSYLVLLFPVFLATDYLR [W5N]",
    "protein stability index": 2.25
  },
  {
    "query_sequence": "IYPVWTYSYYVLLFPVFLATDYLR [L10Y]",
    "protein stability index": 3.63
  },
  {
    "query_sequence": "IYPVWTYSYLALLFPVFLATDYLR [V11A]",
    "protein stability index": 3.63
  },
  {
    "query_sequence": "IYPVWTYSYLVLLCPVFLATDYLR [F14C]",
    "protein stability index": 2.63
  },
  {
    "query_sequence": "IYPVWTYSYLVLLFPVFLACDYLR [T20C]",
    "protein stability index": 2.53
  },
  {
    "query_sequence": "IYPVWTYSYLFLLFPVFLATDYLR [V11F]",
    "protein stability index": 2.34
  },
  {
    "query_sequence": "IYPVWTYSYLVLLFPVFLATDYLS [R24S]",
    "protein stability index": 3.04
  },
  {
    "query_sequence": "IYPVSTYSYLVLLFPVFLATDYLR [W5S]",
    "protein stability index": 2.89
  },
  {
    "query_sequence": "IYPVWTYSYLVLLFPVFLAWDYLR [T20W]",
    "protein stability index": 1.93
  },
  {
    "query_sequence": "FYPVWTYSYLVLLFPVFLATDYLR [I1F]",
    "protein stability index": 2.21
  },
  {
    "query_sequence": "IYPVWTYSYVVLLFPVFLATDYLR [L10V]",
    "protein stability index": 3.74
  },
  {
    "query_sequence": "IYPVWTYSYLVLLTPVFLATDYLR [F14T]",
    "protein stability index": 3.75
  },
  {
    "query_sequence": "IYPAWTYSYLVLLFPVFLATDYLR [V4A]",
    "protein stability index": 2.73
  },
  {
    "query_sequence": "IYPVWTYSYLVLLFPVFYATDYLR [L18Y]",
    "protein stability index": 2.32
  },
  {
    "query_sequence": "IYPVWTYSYLVLLAPVFLATDYLR [F14A]",
    "protein stability index": 2.08
  },
  {
    "query_sequence": "IYPVWTYPYLVLLFPVFLATDYLR [S8P]",
    "protein stability index": 3.7
  },
  {
    "query_sequence": "IYPVWTYSYLVLLQPVFLATDYLR [F14Q]",
    "protein stability index": 2.98
  },
  {
    "query_sequence": "ILPVWTYSYLVLLFPVFLATDYLR [Y2L]",
    "protein stability index": 2.15
  },
  {
    "query_sequence": "IYPVWTYSYLVLTFPVFLATDYLR [L13T]",
    "protein stability index": 1.87
  },
  {
    "query_sequence": "IYPVWTYSYLVLEFPVFLATDYLR [L13E]",
    "protein stability index": 2.6
  },
  {
    "query_sequence": "IYPVWTYSYLVLLFPVFLATAYLR [D21A]",
    "protein stability index": 3.19
  },
  {
    "query_sequence": "IYPVDTYSYLVLLFPVFLATDYLR [W5D]",
    "protein stability index": 2.3
  },
  {
    "query_sequence": "IYPVWTYSYLVLLFYVFLATDYLR [P15Y]",
    "protein stability index": 1.06
  },
  {
    "query_sequence": "IYPVWTYSYLVLLFNVFLATDYLR [P15N]",
    "protein stability index": 2.11
  },
  {
    "query_sequence": "IYPVWTYSYQVLLFPVFLATDYLR [L10Q]",
    "protein stability index": 2.81
  },
  {
    "query_sequence": "IYPVWTYSYLVLLFPVRLATDYLR [F17R]",
    "protein stability index": 2.95
  },
  {
    "query_sequence": "IYPVWTYSYLVLLFPVFLGTDYLR [A19G]",
    "protein stability index": 2.6
  },
  {
    "query_sequence": "IYPVWTYSYLVFLFPVFLATDYLR [L12F]",
    "protein stability index": 2.25
  },
  {
    "query_sequence": "IYSVWTYSYLVLLFPVFLATDYLR [P3S]",
    "protein stability index": 3.26
  },
  {
    "query_sequence": "IYPVWTYSELVLLFPVFLATDYLR [Y9E]",
    "protein stability index": 2.2
  },
  {
    "query_sequence": "IYPVWTYSYLVLFFPVFLATDYLR [L13F]",
    "protein stability index": 2.64
  },
  {
    "query_sequence": "GYPVWTYSYLVLLFPVFLATDYLR [I1G]",
    "protein stability index": 2.67
  },
  {
    "query_sequence": "IYPVWTYSYLVLLFPVFLATDYLN [R24N]",
    "protein stability index": 4.07
  },
  {
    "query_sequence": "IYPVWMYSYLVLLFPVFLATDYLR [T6M]",
    "protein stability index": 2.95
  },
  {
    "query_sequence": "IYPVWTYSYTVLLFPVFLATDYLR [L10T]",
    "protein stability index": 2.94
  },
  {
    "query_sequence": "IYPVWTYSYLVLLFPVFLALDYLR [T20L]",
    "protein stability index": 4.02
  },
  {
    "query_sequence": "IYPVWTYSYLVLLFPVFQATDYLR [L18Q]",
    "protein stability index": 2.84
  },
  {
    "query_sequence": "IYPVWTYSYLVDLFPVFLATDYLR [L12D]",
    "protein stability index": 2.3
  },
  {
    "query_sequence": "IYPVWTYSYLVLLFPVFLATWYLR [D21W]",
    "protein stability index": 2.24
  },
  {
    "query_sequence": "IYPVWTYSYLVLQFPVFLATDYLR [L13Q]",
    "protein stability index": 4.28
  },
  {
    "query_sequence": "IYPVWVYSYLVLLFPVFLATDYLR [T6V]",
    "protein stability index": 2.9
  },
  {
    "query_sequence": "IYPVWTNSYLVLLFPVFLATDYLR [Y7N]",
    "protein stability index": 3.72
  }
]
